SUBJECT_OF_TEST: human Histamine H3 receptor (hH3R) (Homo sapiens)
Construct: expressed in transfected cells; host or cells: CHO cells (Chinese Hamster Ovary); membranes
Sequence (Q9Y5N1 whole entry): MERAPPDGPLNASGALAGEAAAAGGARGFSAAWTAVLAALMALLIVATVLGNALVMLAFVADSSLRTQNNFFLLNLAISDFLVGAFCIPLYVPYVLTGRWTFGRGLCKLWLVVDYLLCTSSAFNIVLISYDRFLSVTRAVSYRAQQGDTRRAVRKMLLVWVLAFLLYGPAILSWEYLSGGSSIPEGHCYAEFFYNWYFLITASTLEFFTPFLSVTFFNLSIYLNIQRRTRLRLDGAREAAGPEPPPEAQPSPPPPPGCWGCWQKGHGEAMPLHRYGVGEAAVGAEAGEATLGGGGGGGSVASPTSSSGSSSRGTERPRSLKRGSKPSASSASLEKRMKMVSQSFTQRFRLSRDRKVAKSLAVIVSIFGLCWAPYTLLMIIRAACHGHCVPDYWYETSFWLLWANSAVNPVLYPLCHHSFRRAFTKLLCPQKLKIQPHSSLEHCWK
PROTOCOL_DETAILS: GTPγS Binding Assay (antagonist activity, [35S]GTPγS, (R)-α-methyl histamine 30 nM)
Assay type: biochemical
CONDITION_SET: membranes from CHO cells expressing hH3R, 90 minutes at room temperature
ASSAY_READOUT: IC50 (nM)

Below, 10 compounds whose answers are already recorded.
>  <COMPOUND>
O=C(C1CC2(CCN(S(=O)(=O)c3ccc(F)cc3)CC2)C1)N1CCCN(C2CCC2)CC1 [Example 38]

>  <ASSAY_READOUT>
IC50

>  <SCALE_UNIT>
nM

>  <OBSERVED>
8.9

$$$$
>  <COMPOUND>
N#Cc1cnccc1C(=O)N1CCC2(CC1)CC(C(=O)N1CCN(C3CCC3)CC1)C2 [Example 64]

>  <ASSAY_READOUT>
IC50

>  <SCALE_UNIT>
nM

>  <OBSERVED>
16.8

$$$$
>  <COMPOUND>
O=C(C1CC2(CCN(c3ccccc3)CC2)C1)N1CCN(C2CCC2)CC1 [Example 3]

>  <ASSAY_READOUT>
IC50

>  <SCALE_UNIT>
nM

>  <OBSERVED>
72.9

$$$$
>  <COMPOUND>
O=C(C1CC2(CCN(c3cncnc3)CC2)C1)N1CCN(C2CCC2)CC1 [Example 67]

>  <ASSAY_READOUT>
IC50

>  <SCALE_UNIT>
nM

>  <OBSERVED>
22.9

$$$$
>  <COMPOUND>
CC(C)N1CCCN(C(=O)C2CC3(CCN(C(=O)c4cccnc4)CC3)C2)CC1 [Example 55]

>  <ASSAY_READOUT>
IC50

>  <SCALE_UNIT>
nM

>  <OBSERVED>
115

$$$$
>  <COMPOUND>
O=C(c1cnccc1Cl)N1CCC2(CC1)CC(C(=O)N1CCN(C3CCC3)CC1)C2 [Example 10]

>  <ASSAY_READOUT>
IC50

>  <SCALE_UNIT>
nM

>  <OBSERVED>
29.6

$$$$
>  <COMPOUND>
O=C(c1ccncc1)N1CCC2(CC1)CC(C(=O)N1CCN(C3CCC3)CC1)C2 [Example 22]

>  <ASSAY_READOUT>
IC50

>  <SCALE_UNIT>
nM

>  <OBSERVED>
12.6

$$$$
>  <COMPOUND>
CC(C)N1CCN(C(=O)C2CC3(CCN(S(C)(=O)=O)CC3)C2)C[C@@H]1C [Example 61]

>  <ASSAY_READOUT>
IC50

>  <SCALE_UNIT>
nM

>  <OBSERVED>
179

$$$$
>  <COMPOUND>
C[C@@H]1CN(C2CCC2)CCN1C(=O)C1CC2(CCN(S(C)(=O)=O)CC2)C1 [Example 62]

>  <ASSAY_READOUT>
IC50

>  <SCALE_UNIT>
nM

>  <OBSERVED>
4.25

$$$$
>  <COMPOUND>
CC(C)N1CCN(C(=O)C2CC3(CCN(C(=O)c4cccnc4)CC3)C2)CC1 [Example 36]

>  <ASSAY_READOUT>
IC50

>  <SCALE_UNIT>
nM

>  <OBSERVED>
67.4

$$$$

[a] CC(C)N1CCCN(C(=O)C2CC3(CCN(C(=O)N(C)C)CC3)C2)CC1 [Example 56]
[b] COc1cc(C(=O)N2CCC3(CC2)CC(C(=O)N2CCN(C4CCC4)CC2)C3)ccn1 [Example 26]
[c] O=C(Cc1cccnc1)N1CCC2(CC1)CC(C(=O)N1CCN(C3CCC3)CC1)C2 [Example 27]
[d] CC(C)N1CCN(C(=O)C2CC3(CCN(C(=O)N(C)C)CC3)C2)CC1 [Example 37]
// smallest IC50 at index 0, largest at the end To answer, write out the labels according to the requested order.
c, b, d, a

[a] O=C(c1cccnc1)N1CCC2(CC1)CC(C(=O)N1CCN(C3CCC3)CC1)C2 [Example 21]
[b] O=C(C1CC2(CCN(S(=O)(=O)c3ccccc3)CC2)C1)N1CCN(C2CCC2)CC1 [Example 6]
Endpoint returns whichever of a and b has the numerically higher IC50. Please indicate the selected item by its label.
a
